Origin of measurements: ChEMBL document CHEMBL1144013

- tgt: Cannabinoid receptor 1 (Homo sapiens, UniProt P21554)
- Sequence (P21554 whole entry): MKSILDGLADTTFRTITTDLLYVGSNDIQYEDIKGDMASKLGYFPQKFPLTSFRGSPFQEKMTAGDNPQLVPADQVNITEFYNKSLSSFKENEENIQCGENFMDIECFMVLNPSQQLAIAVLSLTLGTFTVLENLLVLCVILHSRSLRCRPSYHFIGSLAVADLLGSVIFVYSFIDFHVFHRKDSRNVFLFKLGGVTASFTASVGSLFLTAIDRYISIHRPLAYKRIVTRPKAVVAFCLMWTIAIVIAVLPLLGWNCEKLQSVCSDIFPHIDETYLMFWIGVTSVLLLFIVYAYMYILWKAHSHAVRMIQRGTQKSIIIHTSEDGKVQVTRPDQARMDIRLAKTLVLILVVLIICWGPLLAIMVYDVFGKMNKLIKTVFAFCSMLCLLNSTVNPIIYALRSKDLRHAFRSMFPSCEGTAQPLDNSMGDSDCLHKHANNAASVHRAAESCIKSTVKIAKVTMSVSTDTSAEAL
- test_protocol: Displacement of [3H]CP-55940 from human recombinant CB1 receptor expressed in HEK cells
- Type: cell-based, HEK293
- setup_conditions: read-out: Ki
property_name: pKi
// field semantics: pKi = negative decimal log of concentration (mol/L)

Reference set (2 entries):
{"columns": ["smiles_repr", "tgt", "pKi"],
 "data": [
  ["COc1ccc2c(c1)c(C(=O)C1C(C)(C)C1(C)C)cn2CC1CCOCC1", "Cannabinoid receptor 1 (Homo sapiens, UniProt P21554)", 6.55],
  ["CC1(C)C(C(=O)c2cn(CC3CCOCC3)c3cc(S(C)(=O)=O)ccc23)C1(C)C", "Cannabinoid receptor 1 (Homo sapiens, UniProt P21554)", 5.90]
]}

Query compound follows.
// pKi lookup, compound = `CC1(C)C(C(=O)c2cn(CC3CCOCC3)c3ccc(Cl)cc23)C1(C)C` , result: 6.29

* * *

- Species: Homo sapiens
- test_protocol: Selectivity for human recombinant CB2 receptor over human recombinant CB1 receptor
Entries and their Ratio Ki
Give a plain numeric answer without units written out.

# annotated cases, reported Ratio Ki shown
{"columns": ["compound", "Ratio Ki"],
 "data": [
  ["COc1ccc2c(c1)c(C(=O)C1C(C)(C)C1(C)C)cn2CC1CCOCC1", 61],
  ["COc1ccc2c(C(=O)C3C(C)(C)C3(C)C)cn(CC3CCOCC3)c2c1", 78],
  ["CC1(C)C(C(=O)c2cn(CC3CCOCC3)c3ccc(Cl)cc23)C1(C)C", 171],
  ["CC1(C)C(C(=O)c2cn(CC3CCOCC3)c3c(OCc4ccccc4)cccc23)C1(C)C", 353],
  ["CN1CCCCC1Cn1cc(C(=O)c2cc([N+](=O)[O-])ccc2I)c2ccccc21 (configuration not stated)", 110],
  ["COc1cccc2c1c(C(=O)C1C(C)(C)C1(C)C)cn2CC1CCOCC1", 330]
]}

Please turn your attention to the following entry.
response.value for `CC1(C)C(C(=O)c2cn(CC3CCOCC3)c3cc(S(C)(=O)=O)ccc23)C1(C)C` (field: Ratio Ki) = 423

* * *

- Species on record: Homo sapiens
- test_protocol: Selectivity for human recombinant CB2 receptor over human recombinant CB1 receptor
Classification field: YES = Ratio Ki at or over 300; NO = Ratio Ki under 300.

{"columns": ["smiles_repr", "class_label"],
 "data": [
  ["CC1(C)C(C(=O)c2cn(CC3CCOCC3)c3c(F)c(F)c(F)c(F)c23)C1(C)C", "NO"],
  ["CC1(C)C(C(=O)c2cn(CC3CCOCC3)c3cc(-c4ccccc4)ccc23)C1(C)C", "YES"],
  ["CC1(C)C(C(=O)c2cn(CC3CCOCC3)c3ccc(F)cc23)C1(C)C", "YES"],
  ["CC1(C)C(C(=O)c2cn(CC3CCOCC3)c3ccc(N)cc23)C1(C)C", "NO"],
  ["CC1(C)C(C(=O)c2cn(CC3CCOCC3)c3cc(C(F)(F)F)ccc23)C1(C)C", "NO"]
]}

Now for another entry.
Determine whether this compound has Ratio Ki no lower than 300: `CC1(C)C(C(=O)c2cn(CC3CCOCC3)c3ccc(OCc4ccccc4)cc23)C1(C)C`
NO

* * *

- tgt: Cannabinoid receptor 2 (Homo sapiens, UniProt P34972)
- Sequence (P34972 whole entry): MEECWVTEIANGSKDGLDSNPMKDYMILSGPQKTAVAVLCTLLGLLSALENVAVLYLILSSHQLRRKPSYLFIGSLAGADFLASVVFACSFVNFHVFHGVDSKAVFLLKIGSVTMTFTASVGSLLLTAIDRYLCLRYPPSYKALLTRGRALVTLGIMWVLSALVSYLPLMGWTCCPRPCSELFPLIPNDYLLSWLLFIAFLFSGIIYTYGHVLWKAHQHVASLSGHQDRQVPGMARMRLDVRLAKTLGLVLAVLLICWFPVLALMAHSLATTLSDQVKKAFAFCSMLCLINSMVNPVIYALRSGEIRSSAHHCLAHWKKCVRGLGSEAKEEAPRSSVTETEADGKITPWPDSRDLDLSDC
- test_protocol: Agonist activity at human recombinant CB2 receptor expressed in HEK cells assessed as calcium mobilization by FLIPR relative to CP-55940
- Assay type: functional, cell-based
- setup_conditions: HEK293
Reported Activity by item:
Give a bare numeral; the unit % is implied.

Example results:
{"columns": ["smiles_repr", "quantitative_result"],
 "data": [
  ["CC1(C)C(C(=O)c2cn(CC3CCOCC3)c3ccc(O)cc23)C1(C)C", 78],
  ["CC1(C)C(C(=O)c2cn(CC3CCOCC3)c3cc(O)c(O)cc23)C1(C)C", 106],
  ["Cc1c(C(=O)C2C(C)(C)C2(C)C)c2ccccc2n1CCN1CCOCC1", 60],
  ["CC1(C)C(C(=O)c2cn(CC3CCOCC3)c3cccc(O)c23)C1(C)C", 94]
]}

Summary for this compound, `CC1(C)C(C(=O)c2cn(CC3CCOCC3)c3c(F)c(F)c(F)c(F)c23)C1(C)C` : Activity is 88

The compound `CC1(C)C(C(=O)c2cn(CCN3CCOCC3)c3cc(O)ccc23)C1(C)C` showed Activity equal to 62

Per the record, `CC1(C)C(C(=O)c2cn(CCN3CCOCC3)c3cccc(N)c23)C1(C)C` has Activity of 41

Entry under test: `CC1(C)C(C(=O)c2cn(CC3CCOCC3)c3ccc(CO)cc23)C1(C)C` . Its Activity was 53

Record `CC1(C)C(C(=O)c2cn(CC3CCOCC3)c3ccccc23)C1(C)C` , field Activity: 133

Notebook: `CC1(C)C(C(=O)c2cn(CC3CCOCC3)c3cc(OCc4ccccc4)ccc23)C1(C)C` , Activity read as 45
